test.system: E3 ubiquitin-protein ligase XIAP (Homo sapiens, UniProt P98170)
Sequence (P98170 whole entry, the tested form may be a part): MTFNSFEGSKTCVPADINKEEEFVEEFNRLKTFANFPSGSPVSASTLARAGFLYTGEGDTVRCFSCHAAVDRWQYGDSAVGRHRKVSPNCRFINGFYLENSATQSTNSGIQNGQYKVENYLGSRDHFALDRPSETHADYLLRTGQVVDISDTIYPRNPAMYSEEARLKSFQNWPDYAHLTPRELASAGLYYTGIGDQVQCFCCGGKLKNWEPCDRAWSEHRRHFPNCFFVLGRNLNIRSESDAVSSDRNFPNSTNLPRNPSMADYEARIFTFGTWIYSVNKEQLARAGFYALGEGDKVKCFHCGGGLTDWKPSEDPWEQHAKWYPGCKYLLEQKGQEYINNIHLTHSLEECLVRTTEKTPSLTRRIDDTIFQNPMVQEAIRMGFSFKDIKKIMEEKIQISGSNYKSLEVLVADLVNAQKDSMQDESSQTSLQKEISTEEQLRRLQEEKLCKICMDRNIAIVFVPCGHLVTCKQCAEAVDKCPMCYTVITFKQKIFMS
method.description: Binding affinity to histidine6-tagged human XIAP Bir3 domain expressed in Escherichia coli BL21(DE3)
outcome.measure: Kd (µM)
The response must be a number in µM with no trailing unit.

Incoming: What Kd value was documented for this compound, `C[C@H](N)C(=O)Nc1ccc(Oc2ccccc2Cl)cc1` ?
Outgoing: 200

* * *

method.description: Apparent solubility after 1 day by nephelometry-based method
Format: physicochemical
outcome.measure: solubility kinetic at 24 h

Incoming: What value of solubility kinetic at 24 h has been recorded for this entry: `CN[C@@H](C)C(=O)Nc1ccc(Oc2ccc(OC)cc2)c(C(=O)NCc2csc(-c3cccs3)n2)c1`
Outgoing: > 100 µg/mL
